Where do these numbers come from? They come from ChEMBL document CHEMBL3507680.

- method: Human HepG2 cell viability assay in 384 well format
- Format: toxicity, cell-based
- Set-up: dose 125 nL, time 70.5 hour; concentration not given beside the values
- assay_setup: HepG2 cells, read-out: Inhibition
Record form. Attribute: cytotoxicity at 70.5 h. Fill in for each entry.
Numbers only here, please. The scale is %.

// O=C1CC(NCc2ccc(OC(F)F)cc2)CN1Cc1cccc(F)c1 (stereo unspecified) : cytotoxicity at 70.5 h value = -4.49

Entry NC(=O)C1CN(c2ccc(F)cc2)CCN1 (stereo unspecified) , cytotoxicity at 70.5 h reported as -2.98

The value of cytotoxicity at 70.5 h measured for the compound CC(=O)N1CCN(c2ccnc(C)n2)CC(COc2ccccc2)C1 (stereo unspecified) turned out to be -3.78

The compound listed as CN(C)c1nc(O)cc(C2CCN(C(=O)Cc3ccccn3)C2)n1 (stereo unspecified) has a reported cytotoxicity at 70.5 h of 1.91

Item: Cn1cccc1C(=O)COc1ccc(S(N)(=O)=O)cc1 | cytotoxicity at 70.5 h: 0.32

Query O=C(NCCCn1ccnc1)c1cccnc1OCC(F)(F)F yields cytotoxicity at 70.5 h of 4.36

// Cc1cc(N2CCN(C(=O)Cc3c(C)nc(C)[nH]c3=O)CC2)cc(C)n1 : cytotoxicity at 70.5 h value = 18.5

Recorded result, CSCc1noc(CNC(=O)C2CCN(C(=O)C3CC3)CC2)n1 , cytotoxicity at 70.5 h: -17.4

Documented cytotoxicity at 70.5 h of Cc1nc(C)n(CC2CCCCN2CCC(=O)Nc2cc(C)on2)n1 (stereo unspecified) : -3.96

Record Cc1cc(NS(=O)(=O)CC2CCCCO2)ccc1F (stereo unspecified) , field cytotoxicity at 70.5 h: -2.48

For Cc1cc(CN(C)CC2CCCN(CCc3ccc(Cl)cc3)C2)[nH]n1 (stereo unspecified) the compound record lists cytotoxicity at 70.5 h as -4.86

Briefly, cytotoxicity at 70.5 h measured for Cc1ccccc1OCCN1CCn2c(C)nnc2C1 : 25.1

Briefly, cytotoxicity at 70.5 h measured for CO[C@H]1C[C@@H]2CN(C(=O)c3cc4ccc(F)cc4[nH]3)C[C@@H]2C1 : -6.74

So for CC(Cn1ccnc1)NC(=O)NCc1cccnc1OC1CCCC1 (stereo unspecified) , the logged cytotoxicity at 70.5 h turned out to be -8.81

Record summary for CN1C(=N)NC(=O)/C1=C\c1ccc(-c2ccc(F)cc2)o1 : reported cytotoxicity at 70.5 h = 28.8

Value of measured cytotoxicity at 70.5 h for the entry CN(C)c1ncnc2c1CCN(S(=O)(=O)c1ccccc1C(F)(F)F)C2 : 1.88

Looking up COc1ccc(F)c(-c2cc(C)nc(N)n2)c1 , I see its cytotoxicity at 70.5 h listed as -7.05

cytotoxicity at 70.5 h reading for Cc1cc(C[C@@H]2COC[C@@H]2NC(=O)CN2CCCCCC2)on1 : -10.1

Entry under test: COc1cccc(CNCc2cccnc2-n2cccn2)c1OC . Its cytotoxicity at 70.5 h was 19.6

GET /value?item= Cc1cc(C)n(C2CCCN(C(=O)c3cccc4[nH]ncc34)C2)n1 (stereo unspecified) &field=cytotoxicity at 70.5 h returns -4.99

// CCn1cc2c(n1)CN(S(=O)(=O)c1ccc(C)cc1)CC2COC (stereo unspecified) : cytotoxicity at 70.5 h value = -1.69

Cc1nn(C)c(C)c1CN(CCO)C(=O)C1COc2ccccc2C1 (stereo unspecified) yielded cytotoxicity at 70.5 h of 30

cytotoxicity at 70.5 h reported for this compound CN(Cc1cccc(Cl)c1)C(=O)Cn1nc(-c2ccc(F)cc2)oc1=O : -2.8

Input COCCN(C)C[C@@H]1CN(C(=O)NC2CCCCC2)C[C@@H]1CO . Output cytotoxicity at 70.5 h: -8.61

In plain terms, Cc1cnc(CNC(=O)CC2CCc3ccccc32)cn1 (stereo unspecified) has a documented cytotoxicity at 70.5 h of -13.9

Lab note: Cc1nn(C)cc1S(=O)(=O)N[C@@H]1CCC[C@@H](N2CCCC2)[C@@H]1O gave cytotoxicity at 70.5 h of -9.32

Lab note: c1cc(-c2nc(C3CCN(Cc4ccsc4)CC3)no2)ccn1 gave cytotoxicity at 70.5 h of 36.8

Recorded result, Cc1ncsc1CN1C[C@@H]2CN(Cc3cccnc3)CCO[C@@H]2C1 , cytotoxicity at 70.5 h: -5.27

Note to self: cytotoxicity at 70.5 h recorded for CC(C)OC(=O)N1CCCC(c2nccn2Cc2ccncc2)C1 (stereo unspecified) was -8

Looking up COCC1CN(Cc2ccsc2)Cc2nn(C)cc21 (stereo unspecified) , I see its cytotoxicity at 70.5 h listed as 16.3

cytotoxicity at 70.5 h measured on Cc1nc(CO[C@H]2CN(C(=O)c3ccc[nH]3)[C@@H]3COC[C@H]23)cs1 = -13

// recorded cytotoxicity at 70.5 h for COc1ccccc1C(=O)N(Cc1nc(C)cs1)CC1CCCO1 (stereo unspecified) : 22.1

Value of cytotoxicity at 70.5 h reported for the compound COc1ccccc1N1CCN(C(=O)CSCC2CC2)C(C)C1 (stereo unspecified) is 97.2

Looking up COCC1c2nnn(CC3CC3)c2CCN1C(=O)c1cccn1C (stereo unspecified) , I see its cytotoxicity at 70.5 h listed as 9.68

Short answer for O=C(c1ccccn1)N1CCCN(Cc2nnc(C3CC3)o2)CC1 : cytotoxicity at 70.5 h was -9.21

Value of cytotoxicity at 70.5 h reported for the compound Cc1cccc2c1nc(CCO)n2-c1ccc(C(=O)N2CCCC2)o1 is 12.9

The compound COC(=O)N1CCC(NC(=O)Cn2cc(C)c3ccccc32)CC1 showed cytotoxicity at 70.5 h equal to -7.09

// sample Cc1nnc2n1CCN(C(C(=O)NC1CC1)c1ccccc1)C2 (stereo unspecified) , its cytotoxicity at 70.5 h was -10.2

Entry c1nc(CSc2nnc(C3CC3)s2)cs1 — recorded cytotoxicity at 70.5 h = 1.83

cytotoxicity at 70.5 h in this record for CC(C)C1CN(S(=O)(=O)c2ccc(C#N)cc2)CCS1 (stereo unspecified) : -11.1

Data point: CC1c2ncc(CNC(=O)C3CC3)n2CCN1Cc1cnn(C)c1 (stereo unspecified) ; cytotoxicity at 70.5 h = -12

The compound listed as c1cncc(CNc2cccc(OCCN3CCCCC3)c2)c1 has a reported cytotoxicity at 70.5 h of -11.5

cytotoxicity at 70.5 h recorded for this compound, Cc1cc(C)c2[nH]c(CN3CCCC(N4CCOCC4)C3)cc(=O)c2c1 (stereo unspecified) , is -5.41

Lab book: cytotoxicity at 70.5 h of CC[C@H](C)[C@H](N)C(=O)Nc1nc(-c2cnc(N(C)CCO)nc2)cs1 noted as -1.04

The recorded cytotoxicity at 70.5 h for O=C(NCC1CCOC1)Nc1ccc(Oc2cccc(F)c2)nc1 (stereo unspecified) is -10.7

cytotoxicity at 70.5 h in this record for CN(Cc1ccco1)C[C@H]1OC[C@@H]2CCN(Cc3cccnc3)C[C@@H]21 : -7.43
